test system: Acinetobacter baumannii ATCC 19606; format: cell-based; conditions: ATCC 19606
Where a SMILES comes first, the peptide text is derived from it. Bridges are numbered along the chain shown (N, C = ends). [ ]: non-standard residue; d: D form. The star is where a group is joined. Heptanoyl(6-Me) = CC(C)CCCCC(=O)*; X2 = CC[C@H](C)CCCCC(=O)*; dDab = NCC[C@@H](N)C(=O)O; Dab = NCC[C@H](N)C(=O)O
# MIC A. baumannii ATCC 19606 values compiled below
assayEndpoint: MIC A. baumannii ATCC 19606

[
  {
    "molecule": "CC[C@H](C)CCCCC(=O)N[C@@H](CCN)C(=O)N[C@H](C(=O)N[C@@H](CCN)C(=O)N[C@H]1CCNC(=O)[C@H]([C@@H](C)O)NC(=O)[C@H](CCN)NC(=O)[C@H](CCN)NC(=O)[C@H](CC(C)C)NC(=O)[C@@H](Cc2ccc(O)cc2)NC(=O)[C@H](CCN)NC1=O)[C@@H](C)O [Compound 12] (X2-[Dab]T[Dab][Dab][Dab][dY]L[Dab][Dab]T; lactam 4-C)",
    "assayEndpoint": "MIC A. baumannii ATCC 19606",
    "result": "2 µg/mL"
  },
  {
    "molecule": "CC(C)CCCCC(=O)N[C@@H](CCN)C(=O)N[C@H](C(=O)N[C@H](CCN)C(=O)N[C@H]1CCNC(=O)[C@H]([C@@H](C)O)NC(=O)[C@H](CCN)NC(=O)[C@H](CCN)NC(=O)[C@H]([C@@H](C)O)NC(=O)[C@@H](Cc2ccccc2)NC(=O)[C@H](CCN)NC1=O)[C@@H](C)O [Compound 144] ({Heptanoyl(6-Me)}-[Dab]T[dDab][Dab][Dab][dF]T[Dab][Dab]T; lactam 4-C)",
    "assayEndpoint": "MIC A. baumannii ATCC 19606",
    "result": "1 µg/mL"
  },
  {
    "molecule": "CC(C)CCCCC(=O)N[C@@H](CCN)C(=O)N[C@H](C(=O)N[C@@H](CCN)C(=O)N[C@H]1CCNC(=O)[C@H]([C@@H](C)O)NC(=O)[C@H](CCN)NC(=O)[C@H](CCN)NC(=O)[C@H](CC(C)C)NC(=O)[C@@H](CC(C)C)NC(=O)[C@H](CCN)NC1=O)[C@@H](C)O [Compound 74] ({Heptanoyl(6-Me)}-[Dab]T[Dab][Dab][Dab][dL]L[Dab][Dab]T; lactam 4-C)",
    "assayEndpoint": "MIC A. baumannii ATCC 19606",
    "result": "0.5 µg/mL"
  }
]

====

tested on: Klebsiella pneumoniae ATCC BAA-2146 (NDM-1); assay: Antibacterial activity, MIC by dish double dilution method; assay type: cell-based; details: ATCC BAA-2146
Where a SMILES comes first, the peptide text is derived from it. Bridges are numbered along the chain shown (N, C = ends). [ ]: non-standard residue; d: D form. The star is where a group is joined. dPhe(4-NH2) = Nc1ccc(C[C@@H](N)C(=O)O)cc1; Octanoyl(7-Me) = CC(C)CCCCCC(=O)*; X2 = CC[C@H](C)CCCCC(=O)*; Dab = NCC[C@H](N)C(=O)O
# MIC K. pneumoniae ATCC BAA-2146 (NDM-1) values compiled below
assayEndpoint: MIC K. pneumoniae ATCC BAA-2146 (NDM-1) (µg/mL)

[
  {
    "molecule": "CC[C@H](C)CCCCC(=O)N[C@@H](CCN)C(=O)N[C@H](C(=O)N[C@@H](CCN)C(=O)N[C@H]1CCNC(=O)[C@H]([C@@H](C)O)NC(=O)[C@H](CCN)NC(=O)[C@H](CCN)NC(=O)[C@H](CC(C)C)NC(=O)[C@@H](Cc2ccc(N)cc2)NC(=O)[C@H](CCN)NC1=O)[C@@H](C)O [Compound 11] (X2-[Dab]T[Dab][Dab][Dab][dPhe(4-NH2)]L[Dab][Dab]T; lactam 4-C)",
    "readoutUnit": "µg/mL",
    "numericResult": 2
  },
  {
    "molecule": "CC(C)CCCCCC(=O)N[C@@H](CCN)C(=O)N[C@H](C(=O)N[C@@H](CCN)C(=O)N[C@H]1CCNC(=O)[C@H]([C@@H](C)O)NC(=O)[C@H](CCN)NC(=O)[C@H](CCN)NC(=O)[C@H](CC(C)C)NC(=O)[C@@H](CC(C)C)NC(=O)[C@H](CCN)NC1=O)[C@@H](C)O [Compound 86] ({Octanoyl(7-Me)}-[Dab]T[Dab][Dab][Dab][dL]L[Dab][Dab]T; lactam 4-C)",
    "readoutUnit": "µg/mL",
    "numericResult": 1
  }
]

Source listed as patent US20190315806A1.
